Origin of measurements: patent US20060235076A1

We begin with a simple list: items and their reported MIC.
System: MRSA and MSSA
EXPERIMENT_NOTES: Antibacterial activity of gallic acid, various gallates and multivalent phenol derivatives alone (agar plate dilution method, MIC)
Assay type: cell-based, Staphylococcus aureus
COND: Staphylococcus aureus, MRSA #12; compound alone; read-out: MIC
Give a bare numeral; the unit µg/mL is implied.

So for CCCCCOC(=O)c1ccc(O)cc1 [n-Amyl 4-hydroxybenzoate] , the logged MIC turned out to be 62.5

###

We begin with a simple list: items and their reported Oxacillin MIC.
Tested on: MRSA
EXPERIMENT_NOTES: Potentiating effect of galloyl quinic acid derivatives for the antibacterial activity of oxacillin (agar plate dilution method, MIC)
Assay type: cell-based, Staphylococcus aureus
COND: MRSA 6; with 12.5 μg/ml of compound
Give a bare numeral; the unit µg/mL is implied.

Answered examples (3):
{"MOLECULE": "COC(=O)C1(O)CC(O)C(OC(=O)c2cc(O)c(O)c(O)c2)C(OC(=O)c2cc(O)c(O)c(O)c2)C1 (stereo not shown)", "RESULT": 2}
{"MOLECULE": "COC(=O)C1(O)CC(OC(=O)c2cc(O)c(O)c(O)c2)C(OC(=O)c2cc(O)c(O)c(O)c2)C(OC(=O)c2cc(O)c(O)c(O)c2)C1 (stereo not shown)", "RESULT": 128}
{"MOLECULE": "O=C(OC1CC(O)(C(=O)O)CC(OC(=O)c2cc(O)c(O)c(O)c2)C1OC(=O)c1cc(O)c(O)c(O)c1)c1cc(O)c(O)c(O)c1 (stereo not shown)", "RESULT": 4}

Then this molecule:
So for O=C(OC1CC(O)(C(=O)O)CC(O)C1OC(=O)c1cc(O)c(O)c(O)c1)c1cc(O)c(O)c(O)c1 (stereo not shown) , the logged Oxacillin MIC turned out to be 256

###

Tested on: MRSA and MSSA
EXPERIMENT_NOTES: Antibacterial activity of gallic acid, various gallates and multivalent phenol derivatives alone (agar plate dilution method, MIC)
Type: cell-based, Staphylococcus aureus
COND: Staphylococcus aureus, MRSA #8; read-out: MIC alone
OBSERVABLE: MIC (µg/mL)
Give a bare numeral; the unit µg/mL is implied.

{"COMPOUND": "CCCCCCCOC(=O)c1cc(O)c(O)c(O)c1 [Heptyl gallate, n-heptyl gallate]", "MIC, µg/mL": 31.3}
{"COMPOUND": "CCCCCOC(=O)c1cc(O)c(O)c(O)c1 [Pentyl gallate, n-pentyl gallate]", "MIC, µg/mL": 62.5}

The value of MIC recorded for CCCCCCCCCOC(=O)c1cc(O)c(O)c(O)c1 [Nonyl gallate, n-nonyl gallate] when tested on MRSA and MSSA reads 15.7

The value of MIC recorded for O=C(O)c1cc(O)c(O)c(O)c1 [Gallic acid, gallic acid, reference compound] when tested on MRSA and MSSA reads 31.3

###

We begin with a simple list: items and their reported FIC value.
Tested on: MRSA COL and MRSA Strain No. 5
EXPERIMENT_NOTES: Potentiating effect of various gallates for antibacterial activity of oxacillin (MIC by broth microdilution method and FIC)
Assay type: cell-based, Staphylococcus aureus
COND: MRSA Strain No. 5; combination with oxacillin

Answered examples (3):
{"COMPOUND": "CCCCCCCCCCCCOC(=O)c1cc(O)c(O)c(O)c1 [Lauryl gallate, n-lauryl gallate]", "TARGET_ENTITY": "MRSA COL and MRSA Strain No. 5", "FIC value": 0.375}
{"COMPOUND": "CCCCCCCCOC(=O)c1cc(O)c(O)c(O)c1 [Octyl gallate, n-octyl gallate]", "TARGET_ENTITY": "MRSA COL and MRSA Strain No. 5", "FIC value": 0.75}
{"COMPOUND": "CCCCCOC(=O)c1cc(O)c(O)c(O)c1 [Pentyl gallate, n-pentyl gallate]", "TARGET_ENTITY": "MRSA COL and MRSA Strain No. 5", "FIC value": 0.563}

So for CCCCCCCCCCCOC(=O)c1cc(O)c(O)c(O)c1 [Undecyl gallate, n-undecyl gallate] , the logged FIC value turned out to be 0.251

So for CCCOC(=O)c1cc(O)c(O)c(O)c1 [Propyl gallate, n-propyl gallate] , the logged FIC value turned out to be 0.258

So for CCCCOC(=O)c1cc(O)c(O)c(O)c1 [Butyl gallate, n-butyl gallate] , the logged FIC value turned out to be 0.254

###

We begin with a simple list: items and their reported MIC.
Tested on: MRSA and MSSA
EXPERIMENT_NOTES: Antibacterial activity of gallic acid, various gallates and multivalent phenol derivatives alone (agar plate dilution method, MIC)
Format: cell-based, Staphylococcus aureus
COND: Staphylococcus aureus, MRSA #17; read-out: MIC alone
Give a bare numeral; the unit µg/mL is implied.

Answered examples (3):
{"COMPOUND": "COC(=O)c1cc(O)c(O)c(O)c1 [Methyl gallate, methyl gallate]", "MIC [µg/mL]": 125}
{"COMPOUND": "CCCCCCCCCCOC(=O)c1cc(O)c(O)c(O)c1 [Decyl gallate, n-decyl gallate]", "MIC [µg/mL]": 15.7}
{"COMPOUND": "CCOC(=O)c1cc(O)c(O)c(O)c1 [Ethyl gallate, ethyl gallate]", "MIC [µg/mL]": 62.5}

So for CCCCCOC(=O)c1cc(O)c(O)c(O)c1 [Pentyl gallate, n-pentyl gallate] , the logged MIC turned out to be 62.5

###

System: MRSA and MSSA
EXPERIMENT_NOTES: Antibacterial activity of gallic acid, various gallates and multivalent phenol derivatives alone (agar plate dilution method, MIC)
Format: cell-based, Staphylococcus aureus
COND: Staphylococcus aureus, MSSA #1029; read-out: MIC alone
We begin with a simple list: items and their reported MIC.
Give a bare numeral; the unit µg/mL is implied.

Answered examples (2):
{"COMPOUND": "CCCCCCOC(=O)c1cc(O)c(O)c(O)c1 [Hexyl gallate, n-hexyl gallate]", "UNIT_ABBREV": "µg/mL", "MIC": 62.5}
{"COMPOUND": "CCCCCOC(=O)c1cc(O)c(O)c(O)c1 [Pentyl gallate, n-pentyl gallate]", "UNIT_ABBREV": "µg/mL", "MIC": 62.5}

So for CCOC(=O)c1cc(O)c(O)c(O)c1 [Ethyl gallate, ethyl gallate] , the logged MIC turned out to be 62.5

So for CCCCCCCOC(=O)c1cc(O)c(O)c(O)c1 [Heptyl gallate, n-heptyl gallate] , the logged MIC turned out to be 31.3

So for CCCCCCCCCOC(=O)c1cc(O)c(O)c(O)c1 [Nonyl gallate, n-nonyl gallate] , the logged MIC turned out to be 15.7

So for O=C(O)c1cc(O)c(O)c(O)c1 [Gallic acid, gallic acid, reference compound] , the logged MIC turned out to be 31.3

So for CCCOC(=O)c1cc(O)c(O)c(O)c1 [Propyl gallate, n-propyl gallate] , the logged MIC turned out to be 62.5

###

Test system: MRSA and MSSA
EXPERIMENT_NOTES: Antibacterial activity of gallic acid, various gallates and multivalent phenol derivatives alone (agar plate dilution method, MIC)
Assay type: cell-based, Staphylococcus aureus
COND: Staphylococcus aureus, MRSA #12; compound alone; read-out: MIC
We begin with a simple list: items and their reported MIC.
Give a bare numeral; the unit µg/mL is implied.

Answered examples (2):
{"COMPOUND": "CC(=O)c1ccc(O)c(O)c1O [2′,3′,4′-trihydroxyacetophenone]", "UNIT_ABBREV": "µg/mL", "RESULT": 62.5}
{"COMPOUND": "CCCCCCCCCCCCOC(=O)c1cc(O)c(O)c(O)c1 [Lauryl gallate, n-lauryl gallate]", "UNIT_ABBREV": "µg/mL", "RESULT": 62.5}

Then this compound:
So for CC(C)COC(=O)c1cc(O)c(O)c(O)c1 [isoButyl gallate, isobutyl gallate] , the logged MIC turned out to be 125
